Conditions used: in cyclohexane, 313.15 K
Metric name: solubility (mole fraction)

Suppose we examine the molecule CO[C@@]1(NC(=O)CSCC#N)C(=O)N2C(C(=O)[O-])=C(CSc3nnnn3C)CS[C@@H]21.[Na+] ; what solubility (mole fraction) value has been reported? 5.69e-06

###

Conditions used: in n-butyl acetate, 308.15 K
Metric name: solubility (mole fraction)
Give your answer as a number; write no unit.

Consider the molecule CO[C@@]1(NC(=O)CSCC#N)C(=O)N2C(C(=O)[O-])=C(CSc3nnnn3C)CS[C@@H]21.[Na+] and give its measured solubility (mole fraction). 0.000109

###

Conditions used: in n-butanol, 288.15 K
Metric name: solubility (mole fraction)
Number, no unit, nothing else.

If you can, please state the reported solubility (mole fraction) value of CO[C@@]1(NC(=O)CSCC#N)C(=O)N2C(C(=O)[O-])=C(CSc3nnnn3C)CS[C@@H]21.[Na+] . 6.42e-05

###

Conditions used: in n-butanol, 298.15 K
Metric name: solubility (mole fraction)
Reply briefly: the number, and no unit.

Report solubility (mole fraction) for CO[C@@]1(NC(=O)CSCC#N)C(=O)N2C(C(=O)[O-])=C(CSc3nnnn3C)CS[C@@H]21.[Na+] please. 9.89e-05

###

Conditions used: in ethyl acetate, 288.15 K
Metric name: solubility (mole fraction)
// return just the number, without any unit appended

Entry CO[C@@]1(NC(=O)CSCC#N)C(=O)N2C(C(=O)[O-])=C(CSc3nnnn3C)CS[C@@H]21.[Na+] has what solubility (mole fraction)? 6.94e-05

###

Conditions used: in cyclohexane, 278.15 K
Metric name: solubility (mole fraction)
Reply briefly: the number, and no unit.

Query: solubility (mole fraction); subject: CO[C@@]1(NC(=O)CSCC#N)C(=O)N2C(C(=O)[O-])=C(CSc3nnnn3C)CS[C@@H]21.[Na+] 1.31e-06

###

Conditions used: in cyclohexane, 303.15 K
Metric name: solubility (mole fraction)
Respond numerically, and do not add a unit to the figure.

Fill in: solubility (mole fraction) of CO[C@@]1(NC(=O)CSCC#N)C(=O)N2C(C(=O)[O-])=C(CSc3nnnn3C)CS[C@@H]21.[Na+] is ___ 3.6e-06

###

Conditions used: in n-hexane, 308.15 K
Metric name: solubility (mole fraction)
// print number alone

Could you share which solubility (mole fraction) value was measured for CO[C@@]1(NC(=O)CSCC#N)C(=O)N2C(C(=O)[O-])=C(CSc3nnnn3C)CS[C@@H]21.[Na+] ? 4.92e-06

###

Conditions used: in n-hexane, 313.15 K
Metric name: solubility (mole fraction)

Entry under review: CO[C@@]1(NC(=O)CSCC#N)C(=O)N2C(C(=O)[O-])=C(CSc3nnnn3C)CS[C@@H]21.[Na+] . Reported solubility (mole fraction)? 6e-06

###

Conditions used: in n-butanol, 313.15 K
Metric name: solubility (mole fraction)
Could you respond with only the numeric value?

For the compound shown here, CO[C@@]1(NC(=O)CSCC#N)C(=O)N2C(C(=O)[O-])=C(CSc3nnnn3C)CS[C@@H]21.[Na+] , give the reported solubility (mole fraction). 0.000196

###

Conditions used: in n-butanol, 278.15 K
Metric name: solubility (mole fraction)
Form field (numeric): enter value without unit.

Request the reported solubility (mole fraction) associated with CO[C@@]1(NC(=O)CSCC#N)C(=O)N2C(C(=O)[O-])=C(CSc3nnnn3C)CS[C@@H]21.[Na+] 4.93e-05

###

Conditions used: in ethanol, 283.15 K
Metric name: solubility (mole fraction)

Sample CO[C@@]1(NC(=O)CSCC#N)C(=O)N2C(C(=O)[O-])=C(CSc3nnnn3C)CS[C@@H]21.[Na+] — what was its solubility (mole fraction)? 0.000508

###

Conditions used: in n-pentanol, 298.15 K
Metric name: solubility (mole fraction)
// return a plain number; no unit text

So what's the measured solubility (mole fraction) for this one? CO[C@@]1(NC(=O)CSCC#N)C(=O)N2C(C(=O)[O-])=C(CSc3nnnn3C)CS[C@@H]21.[Na+] 6.75e-05

###

Conditions used: in n-pentanol, 288.15 K
Metric name: solubility (mole fraction)
Form field (numeric): enter value without unit.

GET /values?readout=solubility (mole fraction)&item= CO[C@@]1(NC(=O)CSCC#N)C(=O)N2C(C(=O)[O-])=C(CSc3nnnn3C)CS[C@@H]21.[Na+] 4.82e-05

###

Conditions used: in n-pentanol, 308.15 K
Metric name: solubility (mole fraction)
// no unit string in output, number only

Entry under review: CO[C@@]1(NC(=O)CSCC#N)C(=O)N2C(C(=O)[O-])=C(CSc3nnnn3C)CS[C@@H]21.[Na+] . Reported solubility (mole fraction)? 9.75e-05

###

Conditions used: in n-propanol, 288.15 K
Metric name: solubility (mole fraction)
Reply: number alone, nothing else.

Please report the recorded solubility (mole fraction) for CO[C@@]1(NC(=O)CSCC#N)C(=O)N2C(C(=O)[O-])=C(CSc3nnnn3C)CS[C@@H]21.[Na+] . 8.12e-05

###

Conditions used: in ethanol, 308.15 K
Metric name: solubility (mole fraction)
Reply with the value as a number alone.

Field request: solubility (mole fraction) | item: CO[C@@]1(NC(=O)CSCC#N)C(=O)N2C(C(=O)[O-])=C(CSc3nnnn3C)CS[C@@H]21.[Na+] 0.00105

###

Conditions used: in cyclohexane, 308.15 K
Metric name: solubility (mole fraction)
Format: numeric value only, no unit, no commentary.

Consider the compound CO[C@@]1(NC(=O)CSCC#N)C(=O)N2C(C(=O)[O-])=C(CSc3nnnn3C)CS[C@@H]21.[Na+] and give its measured solubility (mole fraction). 4.62e-06

###

Conditions used: in ethyl acetate, 283.15 K
Metric name: solubility (mole fraction)
Lab note: record just the number, no unit beside it.

Requested field: solubility (mole fraction). Item: CO[C@@]1(NC(=O)CSCC#N)C(=O)N2C(C(=O)[O-])=C(CSc3nnnn3C)CS[C@@H]21.[Na+] 6.03e-05
